Source of measurements: PubChem BioAssay (NCATS)

# MEASURED_ON: Tyrosine-protein kinase Yes (Homo sapiens)
# PROTOCOL_TEXT: qHTS for small molecule inhibitors of Yes1 kinase: Primary Screen (AID 686947); note: nearly all actives have a fitted effect of over 60% in size
# CONDITIONS: Yes1 kinase biochemical qHTS inhibition; series mostly up to 76.9 µM
Inconclusive results are not listed. The source made the active and inactive calls. Calls come from the whole dose curve; as a rule, active = well fitted inhibition curve with a large enough effect; inconclusive = small, poorly fitted or top-dose-only effect; inactive = no such curve, though single readings can be large or run the other way.
Outcome codes: 1 (yes) = active, 0 (no) = inactive

[
  {
    "MOLECULE": "CN(C)C(=O)c1ccc(S(=O)(=O)c2ccc(NC(=O)[C@@](C)(O)C(F)(F)F)c(Cl)c2)cc1",
    "CATEGORY": "0 (no)"
  },
  {
    "MOLECULE": "COc1cc2c(cc1OC)CN(CCc1ccc(NC(=O)c3cccc4c(=O)c5cccc(OC)c5[nH]c34)cc1)CC2",
    "CATEGORY": "0 (no)"
  },
  {
    "MOLECULE": "COc1nc(-c2ccc3c(c2)OCO3)n(-c2ccc(NC(=O)CSc3ccccc3)cc2)n1",
    "CATEGORY": "0 (no)"
  },
  {
    "MOLECULE": "CCCc1nc2c(C)cc(-c3nc4ccccc4n3C)cc2n1Cc1ccc(-c2ccccc2C(=O)O)cc1",
    "CATEGORY": "0 (no)"
  },
  {
    "MOLECULE": "C[C@]1(c2nc3c(C(N)=O)cccc3[nH]2)CCCN1",
    "CATEGORY": "0 (no)"
  },
  {
    "MOLECULE": "COc1ccc(-c2ccc3c(N4CCOCC4)nc(N4C[C@@H](C)O[C@@H](C)C4)nc3n2)cc1CO",
    "CATEGORY": "0 (no)"
  },
  {
    "MOLECULE": "CS(=O)(=O)c1ccc(C(=O)Nc2ccc(Cl)c(-c3ccccn3)c2)c(Cl)c1",
    "CATEGORY": "0 (no)"
  },
  {
    "MOLECULE": "Cc1cc(SCc2sc(-c3ccc(C(F)(F)F)cc3)nc2C)ccc1OCC(=O)O",
    "CATEGORY": "0 (no)"
  },
  {
    "MOLECULE": "COc1ccc2nc(S(=O)Cc3ncc(C)c(OC)c3C)[nH]c2c1 (centres undefined)",
    "CATEGORY": "0 (no)"
  },
  {
    "MOLECULE": "CCC(C)(C)C(=O)O[C@H]1C[C@@H](C)C=C2C=C[C@H](C)[C@H](CC[C@@H]3C[C@@H](O)CC(=O)O3)[C@H]21",
    "CATEGORY": "0 (no)"
  },
  {
    "MOLECULE": "C[C@H](NC(=O)Cc1cc(F)cc(F)c1)C(=O)N[C@@H]1C(=O)N(C)c2ccccc2-c2ccccc21",
    "CATEGORY": "0 (no)"
  },
  {
    "MOLECULE": "CCN(CCCO)CCCOc1ccc2c(Nc3cc(CC(=O)Nc4cccc(F)c4)[nH]n3)ncnc2c1",
    "CATEGORY": "1 (yes)"
  },
  {
    "MOLECULE": "CCN(CC)CCCC(C)Nc1nc(C)cc(Nc2ccc3nc(C)cc(N)c3c2)n1 (centres undefined)",
    "CATEGORY": "0 (no)"
  },
  {
    "MOLECULE": "C[C@]12CC[C@H](O)CC1=CC[C@@H]1[C@H]2CC[C@]2(C)C(c3cccnc3)=CC[C@H]12",
    "CATEGORY": "0 (no)"
  },
  {
    "MOLECULE": "CCOC(=O)C1=C[C@@]2(CC)CCCN3CCc4c(n1c1ccccc41)[C@H]32",
    "CATEGORY": "0 (no)"
  },
  {
    "MOLECULE": "O=C(Nc1cccnc1)N1CCC(Cc2cccc(Oc3ccc(C(F)(F)F)cn3)c2)CC1",
    "CATEGORY": "0 (no)"
  },
  {
    "MOLECULE": "CCCc1nn(C)c2c(=O)[nH]c(-c3cc(S(=O)(=O)N4CCN(C)CC4)ccc3OCC)nc12",
    "CATEGORY": "0 (no)"
  },
  {
    "MOLECULE": "CC(c1cc2ccccc2s1)N(O)C(N)=O (centres undefined)",
    "CATEGORY": "0 (no)"
  },
  {
    "MOLECULE": "COCCNCCCn1c(C(=O)CF)c(-c2ccc(C)cc2)c2c(N)ncnc21",
    "CATEGORY": "0 (no)"
  }
]
